All values here come from PubChem BioAssay (NCI).

Method: NCI Yeast Anticancer Drug Screen. Data for the mgt1 strain (AID 153)
Reported conditions: S. cerevisiae mgt1 mutant growth inhibition; at 33.0 µM
This is part of a sample that, as a whole, favours compounds with a hit. Of some 79,000 tested, about 15% had one in any assay. Calls of active or inactive are those of the source. No stated cut-off is given here; in the data, active means growth inhibition above about 70%; inactive means the rest.
Thanks in advance; please answer with one of these: TRUE (active), FALSE (inactive)

CCOc1c(N=Nc2ccccc2OC)c(C)nn1C(=S)S
FALSE

Next item in the queue.
stdin: Which outcome was assigned to CCCCOP(=O)(CCCP(=O)(OCCCC)OCCCC)OCCCC in this test?
stdout: FALSE

---

The following compounds are listed with their measured growth inhibition values.
Method: NCI Yeast Anticancer Drug Screen. Data for the wt2 strain (AID 169);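 further: 0% = growth of vehicle-treated yeast cultures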
Reported conditions: S. cerevisiae wt2 strain growth inhibition; at 11.0 µM; active compounds read high
About 79,000 compounds went through this panel and 15% of them were active in at least one assay; those are over-represented in the sample as a whole.
Lab book: enter the figure in %, no units written.

Record excerpt, results attached:
Cc1cc(=O)oc2c(C)c3occc(=O)c3cc12
1
CCCC/C=C/C(C)(C(=O)OCC)C(=O)OCC
-6
O=C(NCCCNCCN1C(=O)c2cccc3cc([N+](=O)[O-])cc(c23)C1=O)c1cc(-c2ccccc2)nc2ccccc12
-2
N#CC(C#N)=NNc1ccc(S(=O)(=O)O)cc1
-6
CC(C)(C)c1ccc(NS(=O)(=O)c2ccc(N)cc2)cc1
1
O=c1ssc(=Nc2ccccc2)n1-c1ccccc1
-9

Kindly consider the entry below.
The reported value for CCOC(=O)c1ccc(NC(=O)O/N=C(/Cl)C(C)C)cc1 in terms of growth inhibition is 10

---

Method: NCI Yeast Anticancer Drug Screen. Data for the CLN2oe strain (AID 163);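 further: 0% = growth of vehicle-only control cultures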
Reported conditions: S. cerevisiae CLN2oe strain, at 3.7 µM, active compounds read high
Method: Growth inhibition of yeast strains with defined genetic alterations is measured as a screen for potential anti-cancer activity. Selected strains with alterations in DNA damage repair or cell cycle control were exposed to compounds and growth inhibition was measured relative to vehicle treated controls. The strain used in this assay is CLN2oe
Compounds without any hit were thinned out: in the full panel of roughly 79,000, 15% have a hit.
Endpoint: growth inhibition (%)
Lab book: enter the figure in %, no units written.

Oc1ccc(SCc2ccc(NCc3ccccc3)cc2)cc1
13
Cc1cc2c3ccccc3c3ccccc3c2nn1
-3
CN(CCN(C)Cc1ccccc1)Cc1ccccc1
-5
COC1CCC(O)C(/C=C/[N+](=O)[O-])C1 (centres undefined)
15

The reported value for c1ccc(-c2cnc3ccccc3c2)cc1 in terms of growth inhibition is -7

The reported value for O=C1c2cccnc2C(=O)C2C3C=CC(C3)C12 (centres undefined) in terms of growth inhibition is 16

---

Method: NCI Yeast Anticancer Drug Screen. Data for the wt1 strain (AID 149);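 further: 0% = growth of vehicle-treated wt1 cultures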
Reported conditions: S. cerevisiae wt1 strain (SPY 50644) growth inhibition; at 100.0 µM; active compounds read high
Method: Growth inhibition of yeast strains with defined genetic alterations is measured as a screen for potential anti-cancer activity. Selected strains with alterations in DNA damage repair or cell cycle control were exposed to compounds and growth inhibition was measured relative to vehicle treated controls. The strain used in this assay is wt1
This is part of a sample that, as a whole, favours compounds with a hit. Of some 79,000 tested, about 15% had one in any assay.
# label = Condition met if growth inhibition >= 70% else Condition not met

Before answering, review these 6 worked examples.
CSc1nnc(SC)nn1
Condition met
O=P(NC1CCCCC1)(OCc1ccccc1)OCc1ccccc1
Condition not met
O=[N+]([O-])c1cccc2nc3ccccc3c(NCCCn3ccnc3[N+](=O)[O-])c12
Condition met
S=c1sc2c(s1)SCCS2
Condition not met
CCO/C(C)=C(/C#N)C(N)=S
Condition not met
Nc1n[n+]([O-])c2ccc(Cl)cc2[n+]1[O-]
Condition met

stdin: Assess whether reported growth inhibition for CN(C)CCCCN1c2ccccc2Sc2ccc(N=[N+]=[N-])cc21 sits at 70% or higher.
stdout: Condition met

stdin: Assess whether reported growth inhibition for O=C(CSC(=S)N1CCCCC1)Nc1nc2c(s1)CCCC2 sits at 70% or higher.
stdout: Condition met

---

The following compounds are listed with their measured growth inhibition values.
Method: NCI Yeast Anticancer Drug Screen. Data for the mlh1 strain (AID 171);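 further: 0% = growth of vehicle-treated control cultures of the same strain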
Reported conditions: S. cerevisiae mlh1 strain growth inhibition; at 1.2 µM; active compounds read high
This is part of a sample that, as a whole, favours compounds with a hit. Of some 79,000 tested, about 15% had one in any assay. Calls of active or inactive are those of the source. Cut-off read from the data, not from the text of the source: active = growth inhibition above about 70%; inactive = the rest.

Record excerpt, results attached:
NC1CCCCC1N.Nc1c(N=Nc2ccc(-c3ccc(N=Nc4cc(S(=O)(=O)[O-])c5ccccc5c4N)cc3)cc2)cc(S(=O)(=O)[O-])c2ccccc12.[OH3+].[OH3+].[Pt+4]
-1% (inactive)
CC(C)OC(=O)c1ccc(CCc2cc(O)c(Br)cc2O)cc1
55% (inactive)
COc1ccc2[nH]cc([C@@H]3C4CCC(C4)[C@H]3NCc3cccc(CN[C@H]4C5CCC(C5)[C@@H]4c4c[nH]c5ccc(OC)cc45)c3)c2c1
-68% (inactive)
CCCCN(CCCC)C(=O)/C=C/c1ccccc1
-9% (inactive)
c1ccc2[nH]c(-c3cscn3)nc2c1
-2% (inactive)

The reported value for COc1cc(C2c3cc4c(cc3OC(OC(C)=O)C2C)OCO4)cc(OC)c1OC (configuration not stated) in terms of growth inhibition is -2% (inactive)

The reported value for c1ccc2c(OCC3CO3)cccc2c1 (configuration not stated) in terms of growth inhibition is 0% (inactive)

---

Method: NCI Yeast Anticancer Drug Screen. Data for the bub3 strain (AID 167)
Reported conditions: S. cerevisiae bub3 mutant strain, at 50.0 µM (retest, dose inferred, filed as 5.0), active compounds read high
About 79,000 compounds went through this panel and 15% of them were active in at least one assay; those are over-represented in the sample as a whole. The source made the active and inactive calls. No stated cut-off is given here; in the data, active means growth inhibition above about 70%; inactive means the rest.
Endpoint: growth inhibition

Record excerpt, results attached:
Nc1cc(N)c(N=Nc2cccc3c(S(=O)(=O)O)cccc23)cc1N=Nc1cc([N+](=O)[O-])ccc1O
79% (active)
COc1ccc(C(=O)c2ccccc2C(=O)c2ccccc2OC)cc1
79% (active)

The reported value for Brc1ccccc1-c1ncc(-c2ccccc2)o1 in terms of growth inhibition is 82% (active)

The reported value for O=C(O)C1CC(c2ccccc2)=NN1c1ccccc1 (stereo unspecified) in terms of growth inhibition is 78% (active)

The reported value for CC(C)OC(=O)Nc1ccc2nc(-c3cscn3)[nH]c2c1 in terms of growth inhibition is 81% (active)

The reported value for Cc1cc(C)c(NC(=S)NC(=O)c2ccccc2)cc1C in terms of growth inhibition is 79% (active)

---

Method: NCI Yeast Anticancer Drug Screen. Data for the cln2 rad14 strain (AID 165);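 further: 0% = growth equal to vehicle treated cultures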
Reported conditions: S. cerevisiae cln2 rad14 strain, at 50.0 µM (retest, dose inferred, filed as 5.0), active compounds read high
Procedure: Growth inhibition of yeast strains with defined genetic alterations is measured as a screen for potential anti-cancer activity. Selected strains with alterations in DNA damage repair or cell cycle control were exposed to compounds and growth inhibition was measured relative to vehicle treated controls. The strain used in this assay is cln2 rad14
Compounds without any hit were thinned out: in the full panel of roughly 79,000, 15% have a hit.
Endpoint: growth inhibition (%)
Lab book: enter the figure in %, no units written.

Record excerpt, results attached:
COc1cc2cc3c4cc(OC)c(OC)cc4cc[n+]3c(C)c2cc1OC
26
COc1ccc2[nH]cc([C@@H]3C4CCC(C4)[C@H]3NCc3cccc(CN[C@H]4C5CCC(C5)[C@@H]4c4c[nH]c5ccc(OC)cc45)c3)c2c1
99
O=C(O)c1cc2ccccc2c2c1C(=O)c1ccccc1-2
97
CCCCN(CCCC)C(=O)/C=C/c1ccccc1
20

The reported value for CN(C)c1ccc(N=Nc2ccncc2)cc1 in terms of growth inhibition is 2

The reported value for O=C(O)c1ccccc1/C=N/N=C1c2ccccc2-c2ccccc21 in terms of growth inhibition is 79

The reported value for Clc1ccc2c(c1)N(CCCN1CCCC13CCCCC3)c1ccccc1S2 in terms of growth inhibition is -5

---

Method: NCI Yeast Anticancer Drug Screen. Data for the wt2 strain (AID 169);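 further: 0% = growth of vehicle-treated yeast cultures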
Reported conditions: S. cerevisiae wt2 strain growth inhibition; at 100.0 µM; active compounds read high
This is part of a sample that, as a whole, favours compounds with a hit. Of some 79,000 tested, about 15% had one in any assay.
# binning rule on growth inhibition: LOW (below 30%), MID (30% to below 90%), HIGH (90% or more)

Before answering, review these 3 worked examples.
CCOC(=O)C(Br)C(Br)c1ccccc1Cl (configuration not stated)
HIGH
O=c1nc2n(Cc3ccccc3)c3ccccc3nc-2c(=O)[nH]1
HIGH
CCC(C)NC1=NCC(C)S1 (configuration not stated)
LOW

Next item in the queue.
stdin: Sort into band: C[C](C)(C)[Ge]([O][Ge]([c]1ccccc1)[c]1ccccc1)([O][Ge]([c]1ccccc1)[c]1ccccc1)[C](C)(C)C
stdout: MID
